# System Tested: T1, heterodimeric receptor complex (IL-22Rα/IL-10Rβ) (human, UniProt Q8N6P7 16-574; Q08334 20-325)
# T1 sequence (looked up) 1: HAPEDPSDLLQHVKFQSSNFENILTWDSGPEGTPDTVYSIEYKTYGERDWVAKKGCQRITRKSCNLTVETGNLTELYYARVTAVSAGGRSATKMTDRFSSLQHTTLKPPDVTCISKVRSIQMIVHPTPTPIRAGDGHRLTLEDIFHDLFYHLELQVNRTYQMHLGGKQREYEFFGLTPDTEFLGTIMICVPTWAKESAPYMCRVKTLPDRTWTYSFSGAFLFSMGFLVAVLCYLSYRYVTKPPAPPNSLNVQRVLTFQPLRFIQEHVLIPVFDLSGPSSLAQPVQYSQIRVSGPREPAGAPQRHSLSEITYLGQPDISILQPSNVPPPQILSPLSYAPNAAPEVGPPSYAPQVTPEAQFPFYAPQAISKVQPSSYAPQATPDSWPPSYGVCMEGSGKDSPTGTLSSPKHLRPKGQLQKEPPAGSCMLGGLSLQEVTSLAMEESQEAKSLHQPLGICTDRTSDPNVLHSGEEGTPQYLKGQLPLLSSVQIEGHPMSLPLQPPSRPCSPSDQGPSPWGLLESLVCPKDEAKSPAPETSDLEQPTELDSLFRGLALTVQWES
# T1 sequence (looked up) 2: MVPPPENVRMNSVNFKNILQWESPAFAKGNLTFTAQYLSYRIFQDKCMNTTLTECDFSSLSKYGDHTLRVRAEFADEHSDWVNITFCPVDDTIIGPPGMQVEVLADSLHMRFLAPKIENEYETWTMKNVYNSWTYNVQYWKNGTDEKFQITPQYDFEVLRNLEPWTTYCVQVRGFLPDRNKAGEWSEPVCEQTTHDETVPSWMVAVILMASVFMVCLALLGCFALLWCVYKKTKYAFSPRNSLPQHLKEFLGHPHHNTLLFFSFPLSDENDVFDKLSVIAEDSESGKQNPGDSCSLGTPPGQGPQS
# Protocol Notes: cell-based or functional assay
Is STAT1 Activation EC50 (nM); pSTAT1 FACS, HT29 cells at least 10 nM? Then Criterion met. If not, Criterion not met.

For orientation, consider the following solved cases.
# Binder, Label
data = [
    ("80K-PEG-IL22-D109C (ligand, Cys at position 76 (SEQ ID NO:1 numbering) conjugated to 80 kDa PEG-maleimide (thioether linkage)) APISSHCRLDKSNFQQPYITNRTFMLAKEASLADNNTDVRLIGEKLFHGVSMSERCYLMKQVLNFTLEEVLFPQSCRFQPYMQEVVPFLARLSNRLSTCHIEGDDLHIQRNVQKLKDTVKKLGESGEIKAIGELDLLFMSLRNACI", "Criterion not met"),
    ("60K-PEG-IL22-D109C (ligand, Cys at position 76 (SEQ ID NO:1 numbering) conjugated to 60 kDa PEG-maleimide (thioether linkage)) APISSHCRLDKSNFQQPYITNRTFMLAKEASLADNNTDVRLIGEKLFHGVSMSERCYLMKQVLNFTLEEVLFPQSCRFQPYMQEVVPFLARLSNRLSTCHIEGDDLHIQRNVQKLKDTVKKLGESGEIKAIGELDLLFMSLRNACI", "Criterion not met"),
    ("40K-PEG-IL22-D109C (ligand, Cys at position 76 (SEQ ID NO:1 numbering) conjugated to 40 kDa PEG-maleimide (thioether linkage)) APISSHCRLDKSNFQQPYITNRTFMLAKEASLADNNTDVRLIGEKLFHGVSMSERCYLMKQVLNFTLEEVLFPQSCRFQPYMQEVVPFLARLSNRLSTCHIEGDDLHIQRNVQKLKDTVKKLGESGEIKAIGELDLLFMSLRNACI", "Criterion met"),
    ("40K-PEG-IL22-P50C (ligand, Cys at position 17 (SEQ ID NO:1 numbering) conjugated to 40 kDa PEG-maleimide (thioether linkage)) APISSHCRLDKSNFQQCYITNRTFMLAKEASLADNNTDVRLIGEKLFHGVSMSERCYLMKQVLNFTLEEVLFPQSDRFQPYMQEVVPFLARLSNRLSTCHIEGDDLHIQRNVQKLKDTVKKLGESGEIKAIGELDLLFMSLRNACI", "Criterion met"),
]

Proceed to the following item.
Please indicate if the recorded STAT1 Activation EC50 (nM); pSTAT1 FACS, HT29 cells for 80K-PEG-IL22-P120C (ligand, Cys at position 87 (SEQ ID NO:1 numbering) conjugated to 80 kDa PEG-maleimide (thioether linkage)) APISSHCRLDKSNFQQPYITNRTFMLAKEASLADNNTDVRLIGEKLFHGVSMSERCYLMKQVLNFTLEEVLFPQSDRFQPYMQEVVCFLARLSNRLSTCHIEGDDLHIQRNVQKLKDTVKKLGESGEIKAIGELDLLFMSLRNACI meets or exceeds 10 nM.
Criterion met
